The measured values listed here are drawn from patent US11591355B2.

# Measurement target: CD73 on U138 human neuroglioma cells (Homo sapiens, UniProt P21589)
# Construct: U138 cells were obtained from ATCC and cultured in DMEM with 10% FBS; host or cells: U138 human neuroglioma cells
# Sequence (P21589 27-549): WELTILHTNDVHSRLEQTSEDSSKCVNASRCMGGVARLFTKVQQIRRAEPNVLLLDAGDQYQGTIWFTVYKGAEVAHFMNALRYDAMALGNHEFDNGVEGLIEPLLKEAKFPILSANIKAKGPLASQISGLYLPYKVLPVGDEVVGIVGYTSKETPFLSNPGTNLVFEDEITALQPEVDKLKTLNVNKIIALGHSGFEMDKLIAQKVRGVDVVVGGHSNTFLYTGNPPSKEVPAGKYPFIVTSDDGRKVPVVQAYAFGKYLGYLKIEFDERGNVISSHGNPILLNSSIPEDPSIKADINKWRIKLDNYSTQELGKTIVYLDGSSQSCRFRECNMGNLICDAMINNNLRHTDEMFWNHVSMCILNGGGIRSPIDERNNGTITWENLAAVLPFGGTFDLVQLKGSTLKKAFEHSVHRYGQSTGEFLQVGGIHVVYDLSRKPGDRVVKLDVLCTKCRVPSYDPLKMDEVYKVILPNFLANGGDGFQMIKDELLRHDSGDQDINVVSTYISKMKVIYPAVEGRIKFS
# Test protocol: CD73 Cell-Based Assay
# Measurement conditions: U138 cells, AMP substrate, 2 hours at 37° C., inorganic phosphate by malachite green
# Method: U138 human neuroglioma cells were used in these experiments. U138 cells were obtained from ATCC and cultured in DMEM with 10% FBS. 2500 cells were seeded into 96-well plate with 100 μL of media the day before the experiment. […] 50 μL of supernatant was transferred to a 96-well assay plate and the concentration of inorganic phosphate was determined using malachite green reagent (R&D System; Cat: DY996).
pIC50: −log10 of the molar value.
Value type: pIC50

# annotated cases, reported pIC50 shown
[
  {
    "Compound": "C[C@@H](Nc1nc(Cl)nc2c1ccn2[C@@H]1O[C@H](COCP(=O)(O)O)[C@@H](O)[C@H]1O)c1ccc(Cl)cc1 [Compound 94]",
    "pIC50": "> 8.00"
  },
  {
    "Compound": "O=P(O)(O)COC[C@H]1O[C@@H](n2ccc3c(N4CCC[C@@H]4CO)nc(Cl)nc32)[C@H](O)[C@@H]1O [Compound 283]",
    "pIC50": "6.00 to 7.00"
  },
  {
    "Compound": "C[C@@H](Nc1nc(C#N)nc2c1ccn2[C@@H]1O[C@H](COCP(=O)(O)O)[C@@H](O)[C@H]1O)c1ccc(F)cc1 [Compound 73]",
    "pIC50": "> 8.00"
  },
  {
    "Compound": "C[C@@H](Nc1nc(Cl)nc2c1ccn2[C@@H]1O[C@H](COCP(=O)(O)O)[C@@H](O)[C@H]1O)c1ccc(F)cn1 [Compound 135]",
    "pIC50": "7.00 to 8.00"
  },
  {
    "Compound": "CC(C)(C)C(=O)OCOP(=O)(O)COC[C@H]1O[C@@H](n2ccc3c(NC4CCCC4)nc(Cl)nc32)[C@H](O)[C@@H]1O [Compound 188]",
    "pIC50": "6.00 to 7.00"
  }
]

Qu. // returns reported pIC50 for input CC(C)Nc1ncnc2c1ncn2[C@@H]1O[C@H](COCP(=O)(O)O)[C@@H](O)[C@H]1O [Compound 12]
Ans. < 6.00

---

# Measurement target: Human CD73 (Homo sapiens)
# Construct: purchased R&D Systems; host or cells: CHO cells
# Sequence (P21589 27-549): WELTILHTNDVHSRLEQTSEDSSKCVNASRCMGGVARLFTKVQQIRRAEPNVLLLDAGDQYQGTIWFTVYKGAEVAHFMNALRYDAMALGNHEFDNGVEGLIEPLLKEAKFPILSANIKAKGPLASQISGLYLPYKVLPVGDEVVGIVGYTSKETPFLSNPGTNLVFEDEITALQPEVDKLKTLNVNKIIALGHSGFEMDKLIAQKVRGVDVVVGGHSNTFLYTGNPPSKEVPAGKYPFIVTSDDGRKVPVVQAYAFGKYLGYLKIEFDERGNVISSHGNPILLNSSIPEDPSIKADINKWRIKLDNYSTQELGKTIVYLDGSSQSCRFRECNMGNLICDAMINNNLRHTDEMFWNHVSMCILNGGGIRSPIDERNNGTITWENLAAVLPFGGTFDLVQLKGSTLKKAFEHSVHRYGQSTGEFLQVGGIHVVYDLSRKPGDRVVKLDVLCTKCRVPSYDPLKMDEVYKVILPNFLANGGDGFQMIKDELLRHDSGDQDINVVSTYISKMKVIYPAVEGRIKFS
# Test protocol: CD73 Enzyme Assay
# Format: biochemical
# Measurement conditions: 0.25 nM hCD73, 25 μM AMP, kinetic read at 360 nm; read-out: CD73 Enzyme Assay IC50
Value type: IC50

# annotated cases, reported IC50 shown
[
  {
    "Compound": "O=P(O)(O)COC[C@H]1O[C@@H](n2ncc3c(N4CCC(F)(F)C4)nc(Cl)nc32)[C@H](O)[C@@H]1O",
    "Value type": "IC50",
    "Value measured": "< 10 nM"
  },
  {
    "Compound": "Cc1ccc([C@H](C)Nc2nc(C#N)nc3c2ccn3[C@@H]2O[C@H](COCP(=O)(O)O)[C@@H](O)[C@H]2O)cc1",
    "Value type": "IC50",
    "Value measured": "< 10 nM"
  },
  {
    "Compound": "O=P(O)(O)COC[C@H]1O[C@@H](n2ccc3c(OC4CCCC4)nc(Cl)nc32)[C@H](O)[C@@H]1O",
    "Value type": "IC50",
    "Value measured": "10 to 100 nM"
  },
  {
    "Compound": "C[C@H](Nc1ncnc2c1ncn2[C@@H]1O[C@H](COCP(=O)(O)O)[C@@H](O)[C@H]1O)c1cccc(F)c1",
    "Value type": "IC50",
    "Value measured": "100 to 1000 nM"
  }
]

Qu. // returns reported IC50 for input C[C@@H](Nc1nc(Cl)nc2c1cnn2[C@@H]1O[C@H](COCP(=O)(O)O)[C@@H](O)[C@H]1O)c1ccc(F)cc1
Ans. 10 to 100 nM

Qu. Try this compound too: O=P(O)(O)COC[C@H]1O[C@@H](n2ccc3c(NC4CC(F)(F)C4)nc(Cl)nc32)[C@H](O)[C@@H]1O
Ans. < 10 nM

Qu. Try this compound too: O=P(O)(O)COC[C@H]1O[C@@H](n2ncc3c(N4CC5CCCC5C4)nc(Cl)nc32)[C@H](O)[C@@H]1O (stereo partly shown)
Ans. < 10 nM

---

# Measurement target: Human CD73 (Homo sapiens)
# Construct: purchased R&D Systems; host or cells: CHO cells
# Sequence (P21589 27-549): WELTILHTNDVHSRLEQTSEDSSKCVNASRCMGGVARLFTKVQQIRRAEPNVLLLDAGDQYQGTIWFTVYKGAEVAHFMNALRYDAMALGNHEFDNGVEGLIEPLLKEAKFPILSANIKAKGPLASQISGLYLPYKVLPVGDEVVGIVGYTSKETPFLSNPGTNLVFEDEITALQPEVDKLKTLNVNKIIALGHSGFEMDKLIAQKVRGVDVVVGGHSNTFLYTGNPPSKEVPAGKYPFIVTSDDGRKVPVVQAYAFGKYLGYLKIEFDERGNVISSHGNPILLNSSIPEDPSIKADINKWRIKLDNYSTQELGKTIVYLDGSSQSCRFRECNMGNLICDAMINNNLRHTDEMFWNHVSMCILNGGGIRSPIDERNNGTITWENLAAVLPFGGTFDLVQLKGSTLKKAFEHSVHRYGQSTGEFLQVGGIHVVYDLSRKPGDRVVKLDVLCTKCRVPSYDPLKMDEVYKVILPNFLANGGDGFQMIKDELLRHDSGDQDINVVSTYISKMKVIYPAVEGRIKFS
# Test protocol: CD73 Enzyme Assay
# Format: biochemical
# Measurement conditions: 0.25 nM hCD73, 25 μM AMP, kinetic read at 360 nm; read-out: CD73 Enzyme Assay IC50
Listing of recorded IC50 by entry.

# annotated cases, reported IC50 shown
[
  {
    "Substance smiles": "CC(C)(O)C#Cc1nc(NC2CCCC2)c2ccn([C@@H]3O[C@H](COCP(=O)(O)O)[C@@H](O)[C@H]3O)c2n1",
    "Value measured": "0.01 to 0.1 µM"
  },
  {
    "Substance smiles": "CC(C)(C)C(=O)COP(=O)(O)COC[C@H]1O[C@@H](n2ccc3c(NC4CCCC4)nc(Cl)nc32)[C@H](O)[C@@H]1O",
    "Value measured": "> 1 µM"
  }
]

Qu. Find the measured IC50: item C[C@@H](Nc1nc(Cl)nc2c1ccn2[C@@H]1O[C@H](COCP(=O)(O)O)[C@@H](O)[C@H]1O)c1ccccc1F , target or system Human CD73 (Homo sapiens).
Ans. < 0.01 µM
